These data points were gathered from patent US5217961A.

Each entry below carries its recorded responders at 200 mg/kg.
- System: P-388
- Assay Overview: Effect on prolongation of life span in cancer implanted mouse (P-388)
- Type: in vivo, CDF mouse
- Protocol Conditions: Mus musculus, P388, ip; 200 mg/kg, day 1 and day 5, P-388 i.p., 6 mice/group; read-out: cure (mice cured / mice in group) (converted)
Respond numerically; units are % and should not be typed.

Smiles Str	Target Under Test	responders at 200 mg/kg [%]
COc1cc(NS(C)(=O)=O)ccc1Nc1c2ccccc2nc2c1oc1cc(C)ccc12	P-388	16.7
COc1cc(NS(C)(=O)=O)ccc1Nc1c2ccccc2nc2c1sc1cccc(C)c12	P-388	16.7
COc1cc(NS(C)(=O)=O)ccc1Nc1c2cccc(C)c2nc2c1oc1cc(C)ccc12	P-388	16.7
COc1cc(NS(C)(=O)=O)ccc1Nc1c2cccc(C)c2nc2c1oc1ccccc12	P-388	16.7
COc1cc(NS(C)(=O)=O)ccc1Nc1c2c(nc3c(C)cccc13)-c1c(C)cccc1C2	P-388	16.7

Pending molecule:
// returns reported responders at 200 mg/kg for input CN(C)c1cc(NS(C)(=O)=O)ccc1Nc1c2c(nc3ccccc13)-c1ccccc1C2 33.3

* * *

Each entry below carries its recorded responders at 12.5 mg/kg.
- Test system: P-388
- Assay Overview: Effect on prolongation of life span in cancer implanted mouse (P-388)
- Assay type: in vivo, CDF mouse
- Protocol Conditions: Mus musculus, P388, ip; 12.5 mg/kg, day 1 and day 5, P-388 i.p., 6 mice/group; read-out: cure (mice cured / mice in group) (converted)
Respond numerically; units are % and should not be typed.

Here's what some known entries look like.
Smiles Str	responders at 12.5 mg/kg / %
COc1cc(NS(C)(=O)=O)ccc1Nc1c2ccccc2nc2c1[nH]c1ccc([N+](=O)[O-])cc12	16.7
COc1cc(NS(C)(=O)=O)ccc1Nc1c2ccccc2nc2c1[nH]c1cccc(C)c12	33.3
COc1cc(NS(C)(=O)=O)ccc1Nc1c2cccc(C)c2nc2c1[nH]c1cc(C)ccc12	16.7

// returns reported responders at 12.5 mg/kg for input COc1cc(NS(C)(=O)=O)ccc1Nc1c2ccccc2nc2c1[nH]c1ccc(F)cc12 50
